These entries and their values trace back to PubChem BioAssay AID1159580.

- Test Summary: chemical genetic growth profiling, strain panel (AID 1159580);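 further: tested at 20 µM; growth read once vehicle control cultures reached saturation at 30 °C; 1 = growth at the plate median or of vehicle wells; lower values mean less growth of the strain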
- Assay Conditions: S. cerevisiae deletion strains, growth OD, locus YGR135W, strain pre9, active compounds read low
In all, about 5,500 compounds went through this assay and about 2,000 (36%) were called active. About 18% were inconclusive and are not listed. This is one part of the list.
Metric Name: normalized growth

See these solved cases before continuing.
[[record]]
compound = "C1CNCCN1"
obs_value = "1.01 (inactive)"

[[record]]
compound = "C=C(C)[C@H]1CC=C(C(=O)O)CC1"
obs_value = "0.903 (inactive)"

[[record]]
compound = "CCCCC1(COC(=O)CCC(=O)O)C(=O)N(c2ccccc2)N(c2ccccc2)C1=O"
obs_value = "1.02 (inactive)"

[[record]]
compound = "Cc1ccc2cc3c(ccc4ccccc43)c3c2c1CC3"
obs_value = "0.924 (inactive)"

[[record]]
compound = "CC(=O)Oc1ccc(Cl)c2cccnc12"
obs_value = "0.0649 (active)"

[[record]]
compound = "Cc1ccsc1/C=C/C1=NCCCN1C"
obs_value = "1.01 (inactive)"

[[record]]
compound = "CC(=O)c1c(O)c(C)c(O)c2c1OC1=CC(=O)C(C(C)=O)C(=O)C12C (stereo unspecified)"
obs_value = "0.946 (inactive)"

[[record]]
compound = "CCCCC1=NC2(CCCC2)C(=O)N1Cc1ccc(-c2ccccc2-c2nn[nH]n2)cc1"
obs_value = "1.02 (inactive)"


What value of measured normalized growth is listed for C[C@H]1[C@H]2CCC3C4CC=C5C[C@@H](N(C)C)CC[C@]5(C)C4CC[C@@]32CN1C (stereo partly specified) ?
0.968 (inactive)

Thanks! And CC(=O)O[C@H]1C[C@@H](OC(C)=O)C(C)(C)C2C[C@@H](OC(C)=O)[C@@]3(C)C4=CC(=O)O[C@@H](c5ccoc5)[C@]4(C)CCC3[C@]21C (stereo partly specified) ?
0.992 (inactive)

Thanks! And `c1ccc2c(c1)cc1ccc3cccc4ccc2c1c34` ?
1.01 (inactive)

====

Each entry below carries its reported normalized growth.
- Test Summary: chemical genetic growth profiling, strain panel (AID 1159580)
- Assay Conditions: S. cerevisiae deletion strains, growth OD, locus YER167W, strain BCK2, active compounds read low
The campaign covered roughly 5,500 compounds. About 2,000 (36%) were called active. Another 18% or so got no clear call; they are omitted. This is one part of the list.
Form field (numeric): enter value without unit.

See these solved cases before continuing.
[[record]]
compound = "CC(C)NCC(O)c1ccc(O)c(O)c1 (stereo unspecified)"
obs_value = 0.992

[[record]]
compound = "CC1(C)C(C(Cl)Cl)C2(Cl)C(Cl)C(Cl)C1(Cl)C2(Cl)Cl (stereo unspecified)"
obs_value = 0.968

[[record]]
compound = "Nc1nc2ncc(C(=O)O)nc2c(=O)[nH]1"
obs_value = 1.01

[[record]]
compound = "CC(=O)Nc1ccc(S(=O)(=O)Nc2ccc([N+](=O)[O-])cc2)cc1"
obs_value = 1.01

[[record]]
compound = "NC[C@H](O)c1ccc(O)c(O)c1"
obs_value = 1.02


Pending compound:
What value of measured normalized growth is listed for `Nc1ccc(S(=O)(=O)Nc2ccc(Cl)nn2)cc1` ?
1.01

====

- Test Summary: chemical genetic growth profiling, strain panel (AID 1159580);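 further: tested at 20 µM; growth read once vehicle control cultures reached saturation at 30 °C; 1 = growth at the plate median or of vehicle wells; lower values mean less growth of the strain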
- Assay Conditions: S. cerevisiae deletion strains, growth OD, locus YPL055C, strain LGE1, active compounds read low
About 2,000 (36%) of roughly 5,500 compounds were called active. Inconclusive results (about 18%) are left out. This is one part of the list.
Metric Name: normalized growth

See these solved cases before continuing.
[[record]]
compound = "CC(=O)N/C(=C/c1ccc2c(c1)OCO2)C(=O)O"
metric_name = "normalized growth"
obs_value = "0.87 (inactive)"

[[record]]
compound = "NC(=O)c1ccccc1N1CCCCC1"
metric_name = "normalized growth"
obs_value = "0.998 (inactive)"

[[record]]
compound = "NCC(O)c1ccc(O)c(O)c1 (stereo unspecified)"
metric_name = "normalized growth"
obs_value = "1 (inactive)"


What value of measured normalized growth is listed for `CC(C)(C)C(=O)NC(=S)Nc1cccc(C(F)(F)F)c1` ?
0.785 (active)

Thanks! And `C[C@@]1(C2CCCC2)Cc2cc(OCC(=O)O)c(Cl)c(Cl)c2C1=O` ?
1.01 (inactive)

Thanks! And `O=C(O)c1ccccc1Nc1ccccc1` ?
1.01 (inactive)

Thanks! And `COc1ccc(CCNC(=S)Nc2cccc(C(F)(F)F)c2)cc1OC` ?
1 (inactive)

Thanks! And `COc1cc2c(c(OC)c1OC)-c1ccc(O)c(=O)cc1[C@@H](NC(C)=O)CC2` ?
0.436 (active)

Thanks! And `O=C(CCNNC(=O)c1ccncc1)NCc1ccccc1` ?
0.987 (inactive)

Thanks! And `CSC1=NCN(Cc2ccccc2)CN1` ?
1.06 (inactive)

Thanks! And CC(C)NCC(O)c1ccc(O)c(O)c1 (stereo unspecified) ?
1.01 (inactive)

Thanks! And `O=C(NCCSCc1ccco1)Nc1cc(Cl)cc(Cl)c1` ?
0.858 (inactive)

Thanks! And `Cc1c(Cl)cccc1NC(=S)Nc1ccc(Cl)cc1C(=O)c1ccccc1` ?
0.98 (inactive)

Thanks! And `CCn1nc(C)c(Br)c1-c1nc(-c2ccc(C(F)(F)F)cc2)no1` ?
0.914 (inactive)

Thanks! And `CNC[C@@H](O)c1ccc(O)c(O)c1` ?
1.02 (inactive)

Thanks! And `O=C(NCCSCc1ccco1)c1ccc(Cl)cc1` ?
0.962 (inactive)

Thanks! And `COc1cc2c(c(OC)c1OC)-c1ccc(OC)c(=O)cc1[C@@H](NC(C)=O)CC2` ?
1.04 (inactive)

====

- Test Summary: chemical genetic growth profiling, strain panel (AID 1159580);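 further: tested at 20 µM; growth read once vehicle control cultures reached saturation at 30 °C; 1 = growth at the plate median or of vehicle wells; lower values mean less growth of the strain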
- Assay Conditions: S. cerevisiae deletion strains, growth OD, locus YPL106C, strain sse1, active compounds read low
Screen size: about 5,500 compounds; about 2,000 (36%) were called active. Not shown: some 18% with an inconclusive outcome. Some of the results follow.
Metric Name: normalized growth
Form field (numeric): enter value without unit.

See these solved cases before continuing.
[[record]]
molecule = "CCN(CC)CCOc1ccc2c(c1)C(=O)c1cc(OCCN(CC)CC)ccc1-2"
obs_value = 0.979

[[record]]
molecule = "CC(C)(C)NC[C@@H](O)COc1nsnc1N1CCOCC1"
obs_value = 0.994

[[record]]
molecule = "COc1cccc(/C=C/C(=O)O)c1C(C)C"
obs_value = 0.929


What value of measured normalized growth is listed for `O=C(O)/C=C/C=C/c1ccccc1` ?
0.821

Thanks! And `O=C(O)C1=CCNCC1` ?
1.02

Thanks! And `CC(=O)Nc1ccc(S(=O)(=O)c2ccc(NC(C)=O)cc2)cc1` ?
1.02

====

Each entry below carries its reported normalized growth.
- Test Summary: chemical genetic growth profiling, strain panel (AID 1159580);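 further: tested at 20 µM; growth read once vehicle control cultures reached saturation at 30 °C; 1 = growth at the plate median or of vehicle wells; lower values mean less growth of the strain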
- Assay Conditions: S. cerevisiae deletion strains, growth OD, locus YOR316C, strain cot1, active compounds read low
Among all 5,500 compounds or so, about 2,000 (36%) were called active. Not shown: some 18% with an inconclusive outcome. This is one part of the list.
Form field (numeric): enter value without unit.

See these solved cases before continuing.
[[record]]
compound = "C=C[C@@H](C1=CC(=O)C(OC)=C(OC)C1=O)c1ccccc1"
obs_value = 0.833

[[record]]
compound = "COc1ccccc1OCCNCC(O)COc1cccc2[nH]c3ccccc3c12 (stereo unspecified)"
obs_value = 1.02

[[record]]
compound = "NCCCC[C@H](N[C@@H](CCc1ccccc1)C(=O)O)C(=O)N1CCC[C@H]1C(=O)O"
obs_value = 1

[[record]]
compound = "Nc1ccc(S(=O)(=O)Nc2ccccn2)cc1"
obs_value = 0.994

[[record]]
compound = "COC(C)(C)CCC[C@H](C)C/C=C/C(C)=C/C(=O)OC(C)C"
obs_value = 1.02

[[record]]
compound = "C1CCN2CC3CC(CN4CCCCC34)C2C1 (stereo unspecified)"
obs_value = 1.01

[[record]]
compound = "O=C1CCCC2C3CC(CN12)[C@@H]1CCCCN1C3 (stereo partly specified)"
obs_value = 0.993

[[record]]
compound = "CS(=O)(=O)CCCCN=C=S"
obs_value = 0.921

[[record]]
compound = "CC(=O)Nc1ccc(S(=O)(=O)Nc2ccc([N+](=O)[O-])cc2)cc1"
obs_value = 1

[[record]]
compound = "OC[C@@H](O)[C@@H](O[C@@H]1O[C@H](CO)[C@@H](O)[C@H](O)[C@H]1O)[C@H](O)[C@@H](O)CO"
obs_value = 1.01


What value of measured normalized growth is listed for CCCCC(CC)CN1CN(CC(CC)CCCC)CC(C)(N)C1 (stereo unspecified) ?
0.863

Thanks! And O=c1[nH]c(=O)n(C2C[C@@H](O)[C@@H](CO)O2)cc1F (stereo partly specified) ?
1.02

Thanks! And C=CC(C1=CC(=O)C=CC1=O)c1ccccc1 (stereo unspecified) ?
0.993
